Values from PubChem BioAssay AID1992

Target: Dual specificity protein phosphatase 3 (Homo sapiens) (UniProt P51452)
Sequence (P51452 whole entry, looked up): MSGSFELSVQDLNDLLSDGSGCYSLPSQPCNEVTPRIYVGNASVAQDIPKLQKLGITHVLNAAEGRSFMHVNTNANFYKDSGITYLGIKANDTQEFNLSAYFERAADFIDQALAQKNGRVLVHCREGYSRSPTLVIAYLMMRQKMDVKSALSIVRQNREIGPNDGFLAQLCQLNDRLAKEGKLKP
Test: VHR1 phosphatase inhibitors, primary screen, biochemical, colorimetric, HTS (AID 1992)
Conditions: recombinant VHR phosphatase, colorimetric substrate read-out; at 20 µM; stronger effect = higher value
The campaign covered roughly 50,000 compounds. About 350 (0.7%) were called active. Shown is part of a subset that was picked to be rich in actives.
Rule: inhibition under 30% gives Not met, otherwise Met.

COc1ccc(/C=N/NC(=O)C2CC2)c(OC)c1OC	Not met

For this compound, is measured inhibition 30% or higher? "Cc1cccc(NC(=O)c2cc(-c3ccc(Br)cc3)nc3ccccc23)n1" Not met

Same question, CCOC(=O)C1=C(C)N=c2s/c(=C\c3cc(OC)c(O)c(OC)c3)c(=O)n2C1c1ccccc1 (stereo not given) this time Met

Same question, "COc1ccc(/C=C2/C(C)=C(C#N)c3nc(N)c(C#N)c(C)c32)cc1OC" this time Not met

Same question, CC(=O)N1c2ccc3ccccc3c2C2C=CCC2C1c1ccc(F)cc1 (stereo not given) this time Not met

Same question, "CC1=NN(c2ccc(S(N)(=O)=O)cc2)C(=O)/C1=C\c1ccc(-c2ccc(C(=O)OC(C)C)cc2)o1" this time Not met

Same question, "O=C(Nc1ncc(Br)cc1Br)c1cccc2ccccc12" this time Met

Same question, "Cc1c(N(C(=O)c2cccc(Cl)c2)C(C)C)c(=O)n(-c2ccccc2)n1C" this time Not met

Same question, O=C(CC1Nc2ccccc2NC1=O)Nc1ccccc1NC(=O)CC1Nc2ccccc2NC1=O (stereo not given) this time Met

Same question, Cc1ccc(NC(=O)CC2Nc3cc(C)c(C)cc3NC2=O)cc1 (stereo not given) this time Met
